method description: NCI Yeast Anticancer Drug Screen. Data for the bub3 strain (AID 167)
experimental conditions: S. cerevisiae bub3 mutant strain, at 50.0 µM
About 79,000 compounds went through this panel and 15% of them were active in at least one assay; those are over-represented in the sample as a whole. Active and inactive are the calls of the source. Cut-off read from the data, not from the text of the source: active = growth inhibition above about 70%; inactive = the rest.
Classes used: 1 (active), 0 (inactive)

INSERT INTO measurements (molecule, qualitative_label) VALUES
  ('NC(=O)CNCc1ccc([As]=O)cc1 (stereo not drawn)', 1),
  ('N#CC(C#N)=Cc1ccc([N+](=O)[O-])s1', 1),
  ('CN(C)CC1CC2C3CC=C4CC(O)CCC4(C)C3CCC2(C)C1=O (stereo not drawn)', 1),
  ('COc1cc(C[C@H]2c3cc(OC)c(OC)c(O)c3CCN2C)c(Oc2cc3c(cc2OC)-c2c(OC)c(OC)c(OC)c4c2C(C3)N(C)CC4)cc1OC (stereo partly drawn) (tested in a mixture with another compound)', 0),
  ('CCC[CH2][Sn]([Cl])([CH2]Cl)[CH2]CCC', 1),
  ('CN(CCc1ccc(Br)cc1)CCN1CCCCC1', 1),
  ('CC(Br)CN(CC(C)Br)c1ccc2c(c1)Cc1ccccc1-2 (stereo not drawn)', 1),
  ('O=C(CCl)c1ccc(O)cc1', 1),
  ('COC(=O)C1c2cc3c(c(O)c2C(O)CC1(C)O)C(=O)c1c(O)cc2c(c1C3=O)OC1OC2(C)C(O)C(N(C)C)C1O (stereo not drawn)', 1),
  ('CCCNC(=O)Nc1ccc2c(c1)Cc1cc(N(CCCl)CCCl)ccc1-2', 1),
  ('CC(=O)C1CCC2C3CCC4=CC(=[N+]5CCCCC5)CCC4(C)C3CCC12C (stereo not drawn)', 1),
  ('C[C@]12CC[C@H]3[C@@H](CCC4=CC(=O)CC[C@@H]43)[C@@H]1CC[C@@H]2OC1(O)C(=O)c2ccccc2C1=O', 0),
  ('COC(COC(=O)N1CCN(C=O)CC1)C1=C(N2CC2)C(=O)C(C)=C(N2CC2)C1=O (stereo not drawn)', 0),
  ('C[C@]12Cc3conc3C(O)=C1CC[C@@H]1C2CC[C@@]2(C)C1CC[C@@H]2O (stereo partly drawn)', 1),
  ('CCCCCCCCCCCCCCCc1cccc(O)c1O', 0),
  ('CCOC(=O)C1([Se]c2ccccc2)CCCC1=O (stereo not drawn)', 1),
  ('COc1ccc(/C=C/[N+](=O)[O-])c(OC)c1OC', 1),
  ('Nc1nc(N)c(-c2ccc(Cl)c(Cl)c2)c(CP(Cl)(Cl)(Cl)Br)n1', 0),
  ('CNCC(O)c1ccc(O)c(O)c1.[Pt].c1ccc([PH+](c2ccccc2)c2ccccc2)cc1.c1ccc([PH+](c2ccccc2)c2ccccc2)cc1', 1),
  ('CCC/C=[CH]/[Hg][Cl]', 1),
  ('C=Cc1c2ccccc2cc2ccccc12', 1),
  ('CN1CSC(=S)N(C)C1', 1),
  ('c1ccc2c(c1)CCc1c-2[nH]c2ccccc12', 1),
  ('CCn1c(O)c(C(=O)NC(C)c2ccc([N+](=O)[O-])cc2)c(=O)n(CC)c1=S (stereo not drawn)', 1),
  ('COc1c(Br)cc(/C=C(/C)[N+](=O)[O-])cc1Br', 1),
  ('Oc1c(Cl)cc(-c2cc(Cl)c(O)c(Cl)c2)cc1Cl', 1),
  ('C/C(=N\N)C(CN1CCCCC1)C(c1ccccc1)c1c(O)c2ccccc2oc1=O (stereo not drawn)', 1),
  ('Cc1ccc(S)cc1.[Pb]', 1),
  ('O=[N+]([O-])c1oc2ccc3ccccc3c2c1CCO', 1),
  ('Cc1ccc(P(c2ccc(C)cc2)c2ccc(C)cc2)cc1', 1),
  ('Cc1cccc2cc3ccccc3cc12', 1),
  ('COc1cc(C2c3cc4c(cc3[C@@H](Nc3ccc(F)cc3)C3COC(=O)[C@H]23)OCO4)cc(OC)c1O (stereo partly drawn)', 1),
  ('COc1ccc2c(c1O)C13CCN(C)C(C2)C12C=CC(=O)C3c1c(O)ccc(O)c12 (stereo not drawn)', 0),
  ('[Se]C(=NCc1ccccc1)NCc1ccccc1', 0),
  ('ClC1=C(Cl)C(Cl)(Cl)SS1', 1),
  ('COc1ccccc1[As]=O (stereo not drawn)', 1),
  ('CC[C@](O)(C(=O)O)c1cc2n(c(=O)c1CO)Cc1cc3ccccc3nc1-2', 1),
  ('O=S(=O)(O)O.[Pt].c1ccc([PH+](c2ccccc2)c2ccccc2)cc1.c1ccc([PH+](c2ccccc2)c2ccccc2)cc1.c1ccc([PH+](c2ccccc2)c2ccccc2)cc1', 1),
  ('CCC[CH2][Sn]1([CH2]CCC)[O]Cc2nc(C)ccc2[O]1', 1),
  ('O=C1C=C(CN(CCCl)CCCl)C(=O)C=C1CN(CCCl)CCCl', 0),
  ('CC(C)COP(=O)(O)OCC(C)C.[Al]', 0),
  ('CC1CCCN(CCc2ccccc2)CC1 (stereo not drawn)', 0),
  ('C[C@]12CC/C(=N\OC(=O)Nc3ccccc3)C=C1CC[C@@H]1C2CC[C@@]2(C)C1CC[C@@H]2OC(=O)Nc1ccccc1 (stereo partly drawn)', 1);

src = PubChem BioAssay (NCI)
